# tested-on: Fatty-acid amide hydrolase 1 (Mus musculus, UniProt O08914)
# Sequence (O08914 whole entry): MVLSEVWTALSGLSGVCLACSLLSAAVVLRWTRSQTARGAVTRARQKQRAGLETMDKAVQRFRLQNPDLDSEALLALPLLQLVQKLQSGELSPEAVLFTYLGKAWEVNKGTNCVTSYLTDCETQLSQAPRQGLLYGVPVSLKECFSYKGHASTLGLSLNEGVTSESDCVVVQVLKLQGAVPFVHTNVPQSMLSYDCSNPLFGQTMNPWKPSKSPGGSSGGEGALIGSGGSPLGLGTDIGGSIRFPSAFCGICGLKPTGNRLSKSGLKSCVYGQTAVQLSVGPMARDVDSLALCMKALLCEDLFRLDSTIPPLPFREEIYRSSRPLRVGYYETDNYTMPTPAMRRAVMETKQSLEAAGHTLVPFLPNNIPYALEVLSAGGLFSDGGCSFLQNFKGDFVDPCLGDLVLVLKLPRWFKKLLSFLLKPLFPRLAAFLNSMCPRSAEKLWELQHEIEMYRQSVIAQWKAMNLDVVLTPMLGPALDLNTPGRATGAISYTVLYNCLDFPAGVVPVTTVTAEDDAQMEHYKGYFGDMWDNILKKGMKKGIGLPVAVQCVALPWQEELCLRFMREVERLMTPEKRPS
# experimental-details: Inhibitory concentration against mouse fatty acid amide hydrolase
measured-parameter: IC50 (µM)

In [3]: df
Out[3]:
                                item_smiles  measured_parameter  value
0  NC(=O)CCC/C=C\C/C=C\C/C=C\C/C=C\CCCCCC12CC3CC(CC(C3)C1)C2                IC50   37.4
